# Lookup of reported AC50 keyed by entry
# Experimental system: Adenosylmethionine-8-amino-7-oxononanoate aminotransferase (Mycobacterium tuberculosis)
# Sequence (P9WQ81 whole entry): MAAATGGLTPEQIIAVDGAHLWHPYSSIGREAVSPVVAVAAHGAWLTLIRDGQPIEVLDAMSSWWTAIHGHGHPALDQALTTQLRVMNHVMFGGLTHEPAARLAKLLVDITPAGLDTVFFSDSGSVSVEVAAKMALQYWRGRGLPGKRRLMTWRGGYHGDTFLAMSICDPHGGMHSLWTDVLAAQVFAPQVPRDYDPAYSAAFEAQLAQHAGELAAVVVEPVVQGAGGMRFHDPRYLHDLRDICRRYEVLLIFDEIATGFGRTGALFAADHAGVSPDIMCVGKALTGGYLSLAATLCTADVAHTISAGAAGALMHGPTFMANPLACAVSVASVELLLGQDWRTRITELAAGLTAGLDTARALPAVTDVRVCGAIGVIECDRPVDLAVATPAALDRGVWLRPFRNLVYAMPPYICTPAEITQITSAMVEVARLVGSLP
# Measurement description: Mycobacterium tuberculosis BioA enzyme inhibitor Measured in Biochemical System Using Plate Reader - 2163-02_Inhibitor_Dose_CherryPick_Activity.
# Format: functional, Mycobacterium tuberculosis UT205
Activity calls are given as the source filed them. The rule behind the calls is not given here.

• CC(=O)N1CC[C@@H]2[C@@H](CO)N(C)c3ccc(-c4cccc(F)c4)cc3[C@@H]21 = 832 nM (active)
• COc1ccc(NC2c3ccccc3C(=O)N2c2cccnc2)cc1Cl (centres undefined) = 4040 nM (active)
• COc1cc(C(=O)Nc2cccnc2)cc(OC)c1OC = 2140 nM (active)

Input line: Which AC50 is listed for Cc1cc(C(=O)CSc2nncs2)c(C)n1-c1ccc2c(c1)OCO2 ?
Output line: 1670 nM (active)
